Reference source: patent US20220298235A1

In this section we review reported MFI values for a set of binders.
Biological target: T1, human IL-23 (IL-23-His-Biotin) (human, UniProt Q9NPF7 20-189; P29460 23-328, biotin label, site not stated)
T1 construct: Akesobio lot 20161209; His-tagged and biotinylated
T1 sequence (looked up) 1: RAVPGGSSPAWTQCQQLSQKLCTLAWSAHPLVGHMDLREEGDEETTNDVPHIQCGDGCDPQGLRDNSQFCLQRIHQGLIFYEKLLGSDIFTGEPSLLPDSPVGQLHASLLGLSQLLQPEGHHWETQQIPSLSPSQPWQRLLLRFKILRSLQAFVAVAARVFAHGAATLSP
T1 sequence (looked up) 2: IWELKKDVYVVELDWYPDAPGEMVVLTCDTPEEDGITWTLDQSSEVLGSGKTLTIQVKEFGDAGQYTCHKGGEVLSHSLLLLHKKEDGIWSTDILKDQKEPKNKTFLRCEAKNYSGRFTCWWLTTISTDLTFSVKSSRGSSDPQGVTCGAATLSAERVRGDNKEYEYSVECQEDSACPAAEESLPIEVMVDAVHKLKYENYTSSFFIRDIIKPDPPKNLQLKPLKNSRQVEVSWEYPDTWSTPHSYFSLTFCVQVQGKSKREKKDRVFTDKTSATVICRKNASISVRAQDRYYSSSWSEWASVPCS
Test: FACS competition, IL-23-His-Biotin 2 µg/mL on 293T-IL-12Rβ1&IL-23R cells; antibody 3.33 µg/mL
Note: unit MFI is implicit; provide only the numeric part.

{"columns": ["binder", "MFI [MFI]"],
 "data": [
  ["H5L12 (antibody, human IgG1, kappa, V domains shown, human IgG1 / kappa constant regions; also called humanized antibody H5L12) VH: EVQLVQSGAEVKKPGESLKISCQSSGYSFTTYWIGWVRQMPGQGLEWIGIMSPVDSDIRYNPMFRGQVTMSVDKSSSTAYLQWSSLKASDTAMYYCARRRPGQGYFDFWGQGTMVTVSS VL: EIVLTQSPATLSASPGERATISCRASQSVSSWLAWYQQKPGQAPRSLIYAASNRQSGIPARFSGSGSGTDFTLTISSLEPEDFAVYYCQQYNIYPYTFGQGTRLEIKR", 15.8],
  ["H5L9 (antibody, human IgG1, kappa, V domains shown, human IgG1 (P01857) / kappa (P01834) constant regions; also called humanized antibody H5L9) VH: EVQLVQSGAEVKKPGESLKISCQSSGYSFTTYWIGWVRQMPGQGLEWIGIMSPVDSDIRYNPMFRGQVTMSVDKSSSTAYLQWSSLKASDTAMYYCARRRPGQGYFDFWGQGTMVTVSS VL: DIQMTQSPSSLSASVGDRVTITCKASQNVGSWLAWYQQKPGKAPKSLIYSASSRQSGVPSRFSGSGSGTDFTLTISSLQPEDFATYYCQQYDIYPFTFGQGTKLEIKR", 153]
]}

QUERY: # query: MFI of entry H5L11 (antibody, human IgG1, kappa, V domains shown, human IgG1 / kappa constant regions; also called humanized antibody H5L11) VH: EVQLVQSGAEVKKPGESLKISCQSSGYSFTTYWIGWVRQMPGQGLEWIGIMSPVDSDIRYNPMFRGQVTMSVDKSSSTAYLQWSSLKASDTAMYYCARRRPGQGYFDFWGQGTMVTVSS VL: EIVLTQSPATLSASPGERATISCRASQSVSSWLAWYQQKPGQAPRSLIYSASNLQSGIPARFSGSGSGTDFTLTISSLEPEDFAVYYCQQYNIYPYTFGQGTRLEIKR
RESULT: 20.2
